assayedTarget: postmortem human brain tissue homogenate (temporal cortex)
assayText: Radioligand saturation binding assay with [^3H]PiB, human brain homogenate
setupConditions: huAD-C; two site binding model; read-out: Kd of the high-affinity component
measure: pKd
Formally, pKd is defined as -log10 of the concentration c, with c in mol/L.

Problem: Query for postmortem human brain tissue homogenate (temporal cortex): what pKd does the record show for CNc1ccc(-c2nc3ccc(O)cc3s2)cc1 [[^3H]PiB] ?
Solution: 8.47

###

assayedTarget: postmortem human brain tissue homogenate (temporal cortex)
assayText: Radioligand saturation binding assay with [^3H]PiB, human brain homogenate
setupConditions: huAD-C homogenate; single binding site model; read-out: Kd
measure: pKd
Formally, pKd is defined as -log10 of the concentration c, with c in mol/L.

Problem: What does the data say about its pKd? Entry: CNc1ccc(-c2nc3ccc(O)cc3s2)cc1 [[^3H]PiB]
Solution: 8.28

The origin of these recorded values is paper PMC3302888.
